cytotoxicity at 10 µM: recorded values
# assay_notes: Toxicity liver stage against HepG2, at 10uM
# Type: cell-based
# Design: test concentration 10 uM, cell line HepG2-A16-CD81EGFP
# condition_parameters: human, HepG2-A16-CD81EGFP cells; read-out: INHIBITION
quantity_kind: cytotoxicity at 10 µM

CC(C)CC(=O)N1CCN(Cc2cc(-c3ccncc3)nn2C)CC1 : -23.2%
COc1ccc2[nH]nc(CN3CCN(Cc4cccc(F)c4)CC3)c2c1 : -8.14%
NC(=O)c1cccc(-c2cnc(C3CCCNC3)cn2)c1 (configuration not stated) : -0.055%
CS(=O)(=O)NC[C@@H]1OC[C@H]2CN(C(=O)c3ccccn3)CC[C@H]21 : -7.47%
COc1ccc(C(=O)NCCCn2ccnc2)c(OC)n1 : 4.99%
CN(Cc1cccc(C#N)c1)C(=O)C1CC(c2cccc(F)c2)=NO1 (configuration not stated) : 1.85%
Cc1noc(CC2CCN(Cc3ccc(CCC(C)(C)O)cc3)CC2)n1 : -2.18%
Cc1nc(C2CCCN2Cc2ccc(S(=O)(=O)N(C)C)o2)no1 (configuration not stated) : -2.53%
CCN(Cc1noc(C)n1)C(=O)CCc1scnc1C : 2.13%
CC(C)NC(=O)N1CCOC2(CCNCC2)C1 : -2.69%
Cc1nc[nH]c1CN1CCCC12CCN(c1nc3ccccc3s1)CC2 : -0.369%
CN1CCN(C(=O)c2[nH]nnc2Nc2ccccc2F)CC1 : 1.36%
Cc1cc(CNC(=O)c2cc(NC(=O)C(C)C)ccc2Cl)no1 : 13.6%
CCC1=N[C@@]2(CC[C@@H]3CN(Cc4ccccc4C)C[C@@H]32)C(=O)N1C : -107%
CC(C)n1cnc2c1C(C(=O)N1CCCC1)N(CC1CC1)CC2 (configuration not stated) : 6.59%
CC(=O)c1cccc(OCCCC(=O)N(C)Cc2cnc(C)s2)c1 : 14.2%
Cn1c(Cn2ccnc2)nnc1C1CCN(C(=O)c2ccoc2)CC1 : -120%
Cc1noc(Cl)c1CC(=O)N1CCC(Nc2cccnn2)CC1 : -4.72%
CN(C)CCNC(=O)c1ccc(OC2CCN(C(=O)CO)CC2)c(Cl)c1 : -2.43%
COCCn1cncc1Cn1ncc2ccccc2c1=O : 1.77%
CCN1CCCC1CNCc1cc2cc3c(cc2[nH]c1=O)OCCO3 (configuration not stated) : 5.07%
O=C1C[C@@H]2CC[C@H](CN1)N2C1CCOCC1 : -5.1%
CC(C)c1ncncc1C(=O)NCCN1CCCC1 : -9.91%
O=C1NCCN(CC2CC2)C12CCN(Cc1ccccc1)CC2 : -78.7%
Cc1csc(CN(C)C(=O)Nc2cnn(CC3CCCO3)c2)n1 (configuration not stated) : -3.28%
CCC(=O)N1CCC(Cc2ccccc2-c2ccncc2)(C(N)=O)C1 (configuration not stated) : -25.3%
COc1ccnc(N2CCN(C(=O)c3csc(C4CC4)n3)CC2)n1 : 4.85%
COc1ccccc1NC(=O)NCc1cn[nH]c1 : 16.9%
CCC(=O)N1CSCC1C(=O)Nc1ccccc1-c1cccs1 (configuration not stated) : -3.8%
CCc1cc(C)c(C(=O)N2CCCC(c3nnn[nH]3)C2)o1 (configuration not stated) : 1.02%
CCCN1CC2(CCN(C)CC2)CC1C(=O)NCCn1cc(C)cn1 (configuration not stated) : -22.9%
CCN1CCCC1CNCc1cc2cc(OC)c(OC)cc2[nH]c1=O (configuration not stated) : 2.63%
COc1ccc(N2CCC(N3C[C@H](NC(C)=O)[C@@H](C(C)C)C3)CC2)cc1 : -9.92%
COC(=O)[C@@H]1CN(S(=O)(=O)c2ccccc2)CCN1S(C)(=O)=O : 0.471%
c1csc(CN2Cc3nccn3CC(Cn3cncn3)C2)c1 (configuration not stated) : -136%
CCN1CCN(CC(=O)N2CCOC(Cc3ccc(OC)cc3)C2)CC1 (configuration not stated) : -2.77%
COCCNc1nc(C)nc2c1CCN(CC1CCC(N)CC1)CC2 (configuration not stated) : -2.84%
CNC(=O)CS(=O)(=O)Cc1cc(Cl)c2c(c1)OCCO2 : -4.17%
O=C(NCCc1ccn(-c2ccc(F)cc2)n1)C1CCCOC1 (configuration not stated) : 6.65%
OC1CCN(c2ccc(CNc3nc4ccccc4o3)cc2F)CC1 : 0.833%
CN1CCN(c2nc(O)c3c(-c4ccccn4)ccnc3n2)CC1 : -6.6%
CN(Cc1ccco1)C(=O)NCC(c1cccs1)N(C)C (configuration not stated) : 4.38%
CCC(=O)N1CCCCC1c1nc(N(C)C)ncc1-c1cc(C)no1 (configuration not stated) : 5.69%
CN1CCC(O)(CNC(=O)c2cc(COc3cccc(F)c3)[nH]n2)CC1 : 2.91%
CN(C)C(=O)CC1CCOc2ccccc21 (configuration not stated) : 4.17%
Cc1occc1C(=O)N1CCOCC2(CCN(Cc3nccs3)C2)C1 (configuration not stated) : -6.34%
CNC(=O)[C@H]1C[C@@H]2CN(S(=O)(=O)c3cccc(C)c3)C[C@@H]2N1C : 1.59%

====

# assay_notes: Toxicity liver stage against HepG2, at 10uM
# Assay type: cell-based
# Set-up: test concentration 10 uM, cell line HepG2-A16-CD81EGFP
# condition_parameters: human, HepG2-A16-CD81EGFP cells; read-out: INHIBITION
quantity_kind: cytotoxicity at 10 µM (%)

O=C(NCCNc1cnccn1)N1CCN(Cc2cccnc2)CC1 : 4.07
Cc1cc(CN2CCC(c3ccnn3CCO)CC2)no1 : -11.2
Cc1nc(CC(=O)N2CCC(Nc3cccnn3)CC2)cs1 : -9.45
COc1ccc(N2CCN(C(=O)CCn3nnnc3C)CC2(C)C)cc1 : 10.4
CNc1nc2c(s1)C(c1cccc(Cl)c1Cl)CC(=O)N2 (stereo unspecified) : 5.97
CN(C)C(=O)c1cccnc1-c1ccc2c(c1)OCO2 : 1.58
Cn1ccnc1-c1nc(NC2CCCC2)ncc1-c1cccc(F)c1 : 14.1
CCOCCOC(C)C(=O)Nc1ccc2c(ccn2CC)c1 (stereo unspecified) : 3.99
COc1ncccc1CN1CCc2[nH]nc(C(=O)N(C)C)c2C1 : 1.55
CSCCNC(=O)c1ccc(OC2CCN(CC(C)(C)C)CC2)c(Cl)c1 : -10.9
Cc1nc(CN2C(=O)C[C@@H]3[C@@H]2CCN3Cc2cnn(C)c2)cs1 : 2.44

====

cytotoxicity at 10 µM: recorded values
# assay_notes: Toxicity liver stage against HepG2, at 10uM
# Format: cell-based
# Set-up: test concentration 10 uM, cell line HepG2-A16-CD81EGFP
# condition_parameters: human, HepG2-A16-CD81EGFP cells; read-out: INHIBITION
quantity_kind: cytotoxicity at 10 µM (%)

CN1CC(=O)N(c2cccc(F)c2)CC12CCN(S(C)(=O)=O)C2 (stereo unspecified) : 1.52
CCC(CNC(=O)Cn1ccnc1)Oc1cccc(F)c1 (stereo unspecified) : -45.8
Cc1noc2ncnc(N3CCC(O)(Cn4ccnc4)CC3)c12 : 0.648
CCn1nc(CC(C)C)cc1C(=O)N1CC[C@@H](O)C1 : 16.5
O=C(C[S+]([O-])Cc1ccc(Cl)cc1Cl)N1CCc2sccc2C1 (stereo unspecified) : 2.13
NC(=O)CN1CCCN(C(=O)Cc2ccc(F)cc2)CC1 : -9.17

====

# assay_notes: Toxicity liver stage against HepG2, at 10uM
# Format: cell-based
# Set-up: test concentration 10 uM, cell line HepG2-A16-CD81EGFP
# condition_parameters: human, HepG2-A16-CD81EGFP cells; read-out: INHIBITION
quantity_kind: cytotoxicity at 10 µM (%)

CC(=O)c1cccc(NC(=O)CN2CCCCC2C)c1 (stereo unspecified) : -0.684
Cc1cc(CN2C[C@H](OCC3CCOCC3)[C@H]3COC[C@H]32)oc1C : 6.88
CN(C)Cc1nc(C(C)(C)NC(=O)C2CC(=O)N(CC3CC3)C2)no1 (stereo unspecified) : -5.9
Cn1c2ccccc2c2ncn(CCCN3CCOCC3)c(=O)c21 : 18.3
COC1CCN(C(=O)Cn2cccc(C(F)(F)F)c2=O)C1 (stereo unspecified) : 2.23
Cc1cc(N2CCN3CCCCC3C2)n2nc(C)c(C)c2n1 (stereo unspecified) : -10.4
COCC(=O)N1CCC2(CC1)NC(=O)[C@H]1CN(C(=O)N(C)C)C[C@H]12 : 7
Cc1nc(-c2cc(Cl)cc3c2OC(CN)C3)c[nH]1 (stereo unspecified) : -1.11
Cc1ccnc(C2(C)CCCN2S(=O)(=O)c2cccnc2)n1 (stereo unspecified) : 5.95
O=C1NCC2(CCCN(CCc3ccccc3)C2)Oc2ccccc21 (stereo unspecified) : 2.93
CS(=O)(=O)NC[C@H]1Cn2c(-c3ccccc3)cnc2CO1 : -2.96

====

# assay_notes: Toxicity liver stage against HepG2, at 10uM
# Assay type: cell-based
# Set-up: test concentration 10 uM, cell line HepG2-A16-CD81EGFP
# condition_parameters: human, HepG2-A16-CD81EGFP cells; read-out: INHIBITION
quantity_kind: cytotoxicity at 10 µM (%)

O=C(N1CCC(O)(C(F)(F)F)C1)C1(c2cccc(Cl)c2)CC1 (stereo unspecified) : -2.72
CCn1cc(NC(=O)NCC(c2cccs2)N(C)C)cn1 (stereo unspecified) : -2.66
O=C(C1CC1)N1CCCC(c2nc(O)cc(-c3ccncc3)n2)C1 (stereo unspecified) : 31.2
COC1C[C@@H]2CN(C(=O)c3cccc4c3OCCO4)C[C@@H]2C1 (stereo partly specified) : 7.77
CNCc1ccc([C@@H]2CN(C(C)=O)C[C@H]2C(=O)N(C)C)cc1 : 3
COC(=O)c1cc(C(=O)N2CCOC(C)(C)C2)n(-c2ccccc2)n1 : -2.81
